# System: ATP;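 note: ATP exposure 15 min at 22 °C before imaging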
# ASSAY_DETAILS: switch fluorescence ratio, 500 uM ATP over buffer (Cy3 cluster intensity, sum of 5 cycles each) (fold (ratio)); higher = stronger signal-on switching upon ATP binding; sequences stand for … in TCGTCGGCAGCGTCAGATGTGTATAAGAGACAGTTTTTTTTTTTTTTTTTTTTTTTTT…TC
# SETUP_CONDITIONS: aptamer strand: ATP DNA aptamer (quencher-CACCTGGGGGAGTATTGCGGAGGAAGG + anchor), 100 nM annealed; ATP concentration: 500 uM
ATTRIBUTE_MEASURED: switch fluorescence ratio
Reply with just the number.

Use these answered entries as a reference point.
{"POLYMER_SEQUENCE": "ACATTTATGG", "switch fluorescence ratio": 0.999}
{"POLYMER_SEQUENCE": "TTTTCTGCGT", "switch fluorescence ratio": 1.02}
{"POLYMER_SEQUENCE": "GGTTCAATCT", "switch fluorescence ratio": 0.981}
{"POLYMER_SEQUENCE": "GGGCTGGATT", "switch fluorescence ratio": 1.01}
{"POLYMER_SEQUENCE": "TTGGGGTAGG", "switch fluorescence ratio": 1.01}
{"POLYMER_SEQUENCE": "GGAATGCTTC", "switch fluorescence ratio": 1.06}
{"POLYMER_SEQUENCE": "TCACGGGTGC", "switch fluorescence ratio": 1.91}
{"POLYMER_SEQUENCE": "ATTGTTTTGG", "switch fluorescence ratio": 0.981}

Problem: What value of measured switch fluorescence ratio is listed for CTCATAGTAG ?
Solution: 0.988

Problem: What value of measured switch fluorescence ratio is listed for TGCGCCGTTT ?
Solution: 1.01

Problem: What value of measured switch fluorescence ratio is listed for ATGAGGGTGC ?
Solution: 0.994

Problem: What value of measured switch fluorescence ratio is listed for CGAGCTTGAG ?
Solution: 0.99

Problem: What value of measured switch fluorescence ratio is listed for TTAGAACTCT ?
Solution: 1.01

====

# Tested on: ATP;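 note: ATP exposure 15 min at 22 °C before imaging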
# ASSAY_DETAILS: switch fluorescence ratio, 500 uM ATP over buffer (Cy3 cluster intensity, sum of 5 cycles each) (fold (ratio)); higher = stronger signal-on switching upon ATP binding; sequences stand for … in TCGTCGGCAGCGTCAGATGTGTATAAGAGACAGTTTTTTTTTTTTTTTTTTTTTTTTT…TC
# SETUP_CONDITIONS: aptamer strand: ATP DNA aptamer (quencher-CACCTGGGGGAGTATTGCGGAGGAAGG + anchor), 100 nM annealed; ATP concentration: 500 uM
Recorded switch fluorescence ratio for the following sequences
Reply with just the number.

{"POLYMER_SEQUENCE": "TGTGGGGTGG", "switch fluorescence ratio": 0.999}
{"POLYMER_SEQUENCE": "TGGTTGATAG", "switch fluorescence ratio": 0.992}
{"POLYMER_SEQUENCE": "CAGAGTGCTG", "switch fluorescence ratio": 1.06}
{"POLYMER_SEQUENCE": "AATATTTCGC", "switch fluorescence ratio": 1.02}
{"POLYMER_SEQUENCE": "TTTGATACTC", "switch fluorescence ratio": 1.15}

Problem: What value of measured switch fluorescence ratio is listed for TGTGGTAGCC ?
Solution: 1.02

Problem: What value of measured switch fluorescence ratio is listed for ATGTATTGAG ?
Solution: 1.01

Problem: What value of measured switch fluorescence ratio is listed for AGAGTCAGGC ?
Solution: 1.07

Problem: What value of measured switch fluorescence ratio is listed for GGTACTGGAC ?
Solution: 1.09

Problem: What value of measured switch fluorescence ratio is listed for CGGACGGTTG ?
Solution: 1.01

Problem: What value of measured switch fluorescence ratio is listed for TTTTGAGGT ?
Solution: 1.02

Problem: What value of measured switch fluorescence ratio is listed for TCCTTCACGA ?
Solution: 2.07

Problem: What value of measured switch fluorescence ratio is listed for AGAGCGGTTC ?
Solution: 1.06

Problem: What value of measured switch fluorescence ratio is listed for TTTTGTTTTT ?
Solution: 1.08

Problem: What value of measured switch fluorescence ratio is listed for GGTGGACTTG ?
Solution: 1

Problem: What value of measured switch fluorescence ratio is listed for CGGTAAAAAG ?
Solution: 1.01

Problem: What value of measured switch fluorescence ratio is listed for GAGGGGGGGA ?
Solution: 1
